Record form. Attribute: phosphorylation enrichment. Fill in for each entry.
Target: FGFR3 (UniProt P22607)
Sequence (P22607 whole entry, looked up): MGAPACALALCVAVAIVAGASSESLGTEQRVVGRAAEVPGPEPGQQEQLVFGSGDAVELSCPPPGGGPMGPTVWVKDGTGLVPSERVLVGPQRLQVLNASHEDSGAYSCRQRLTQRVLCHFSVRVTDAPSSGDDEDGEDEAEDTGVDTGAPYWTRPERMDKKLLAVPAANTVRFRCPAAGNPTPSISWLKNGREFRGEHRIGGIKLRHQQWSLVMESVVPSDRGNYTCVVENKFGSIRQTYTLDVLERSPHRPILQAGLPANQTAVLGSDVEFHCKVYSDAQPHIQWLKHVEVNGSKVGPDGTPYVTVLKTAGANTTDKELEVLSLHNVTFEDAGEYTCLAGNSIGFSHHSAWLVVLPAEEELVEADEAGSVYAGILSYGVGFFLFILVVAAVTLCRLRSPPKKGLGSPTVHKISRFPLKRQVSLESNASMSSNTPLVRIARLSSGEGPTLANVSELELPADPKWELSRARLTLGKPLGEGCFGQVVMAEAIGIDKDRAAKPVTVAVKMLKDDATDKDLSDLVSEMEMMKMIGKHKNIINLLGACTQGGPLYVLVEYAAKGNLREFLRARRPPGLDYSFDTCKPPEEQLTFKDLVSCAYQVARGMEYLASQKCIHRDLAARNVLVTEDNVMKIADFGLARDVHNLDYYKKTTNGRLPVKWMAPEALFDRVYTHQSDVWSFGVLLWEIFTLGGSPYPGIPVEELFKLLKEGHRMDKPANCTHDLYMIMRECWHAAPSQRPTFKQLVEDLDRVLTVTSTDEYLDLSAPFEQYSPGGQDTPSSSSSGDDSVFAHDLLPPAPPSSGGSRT
Assay: phosphorylation enrichment, bacterial display (enrichment ratio); higher = better substrate or ligand; peptides without Tyr show the background;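 further: 11-residue human phosphosite peptides and single-mutation variants displayed on the E. coli surface, counted by deep sequencing, each peptide's frequency after selection divided by its frequency in the unselected input library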;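 further: frequency after pTyr selection over input frequency; kinase dosed for 20-30% of maximal phosphorylation in three min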
Enter a number only.

The sequence listed as EADRKYEEVAR [TPM3_Y163] shows phosphorylation enrichment equal to 0.895

The sequence listed as QMRLRYLAAEE [CEP120_Y884] shows phosphorylation enrichment equal to 0.874

The sequence listed as LLKMMYLMLDN [STAT1_Y203_K201M] shows phosphorylation enrichment equal to 0.902

----------
Target: Jak2 (UniProt O60674)
Sequence (O60674 whole entry, looked up): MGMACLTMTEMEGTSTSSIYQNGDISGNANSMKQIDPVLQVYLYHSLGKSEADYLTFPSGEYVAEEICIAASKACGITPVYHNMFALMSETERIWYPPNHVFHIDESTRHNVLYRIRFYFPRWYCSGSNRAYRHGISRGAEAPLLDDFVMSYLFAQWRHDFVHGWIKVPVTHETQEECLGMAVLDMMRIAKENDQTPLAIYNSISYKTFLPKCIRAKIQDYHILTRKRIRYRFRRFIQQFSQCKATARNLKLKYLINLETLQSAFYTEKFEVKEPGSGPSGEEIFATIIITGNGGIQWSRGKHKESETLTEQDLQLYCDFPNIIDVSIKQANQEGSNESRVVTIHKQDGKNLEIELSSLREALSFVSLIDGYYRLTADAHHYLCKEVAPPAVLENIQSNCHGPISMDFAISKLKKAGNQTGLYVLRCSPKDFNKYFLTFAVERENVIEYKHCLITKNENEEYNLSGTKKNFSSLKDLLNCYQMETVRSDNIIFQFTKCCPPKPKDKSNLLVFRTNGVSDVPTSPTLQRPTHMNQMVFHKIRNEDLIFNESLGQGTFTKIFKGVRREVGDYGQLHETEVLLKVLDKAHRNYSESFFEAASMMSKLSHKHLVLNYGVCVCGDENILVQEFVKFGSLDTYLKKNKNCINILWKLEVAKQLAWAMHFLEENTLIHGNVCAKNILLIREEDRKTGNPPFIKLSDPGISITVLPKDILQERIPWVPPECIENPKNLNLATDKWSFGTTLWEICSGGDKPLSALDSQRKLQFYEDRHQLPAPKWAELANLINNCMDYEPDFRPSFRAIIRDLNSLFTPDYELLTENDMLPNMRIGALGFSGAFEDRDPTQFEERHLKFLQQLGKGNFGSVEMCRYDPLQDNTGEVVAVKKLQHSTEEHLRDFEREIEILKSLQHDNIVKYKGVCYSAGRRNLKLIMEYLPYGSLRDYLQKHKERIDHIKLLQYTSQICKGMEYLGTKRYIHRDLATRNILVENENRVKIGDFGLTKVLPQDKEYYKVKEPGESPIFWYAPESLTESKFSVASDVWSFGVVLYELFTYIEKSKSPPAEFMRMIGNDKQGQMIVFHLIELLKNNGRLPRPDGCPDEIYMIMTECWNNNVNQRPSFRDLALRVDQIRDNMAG
Test: phosphorylation enrichment, bacterial display (enrichment ratio); higher = better substrate or ligand; peptides without Tyr show the background
Record form. Attribute: phosphorylation enrichment. Fill in for each entry.
Enter a number only.

The sequence listed as SDQPDYDSVAS [GIT2_Y392_N387S] shows phosphorylation enrichment equal to 1.09

The sequence listed as QAPPVYLDVLG [NTRK1_Y791] shows phosphorylation enrichment equal to 1.16

The sequence listed as TLKDVYDDGKF [RPS6KA3_Y483_YF] shows phosphorylation enrichment equal to 0.655

The sequence listed as ILGRTYFVNHE [NEDD4_Y627_YF] shows phosphorylation enrichment equal to 0.758

The sequence listed as SAAAIYTVRHP [PMP22_Y117] shows phosphorylation enrichment equal to 0.506

The sequence listed as AVISVYDLVAV [PSEN1_Y256] shows phosphorylation enrichment equal to 0.82

The sequence listed as VQVAYYTVMMN [SPATA17_Y84_M86V] shows phosphorylation enrichment equal to 3.06

The sequence listed as MNLLGYRQVRS [CHST4_Y359_H361Q] shows phosphorylation enrichment equal to 0.566

The sequence listed as QGLRLYRPHLA [BTK_Y617] shows phosphorylation enrichment equal to 1.15

The sequence listed as DNLSNYVFQGQ [GRIN2A_Y978_N976S] shows phosphorylation enrichment equal to 0.783

The sequence listed as NKFTTYLPRLP [C9orf24_Y126_YF] shows phosphorylation enrichment equal to 0.666

The sequence listed as WRPFGYPCRRR [BCS1L_Y181_R183C] shows phosphorylation enrichment equal to 0.394

The sequence listed as RYVTRSIYNRE [HLA-DQB1_Y62_Y62S] shows phosphorylation enrichment equal to 1.1

The sequence listed as GMRHGHGVRQS [JPH2_Y141_Y141H] shows phosphorylation enrichment equal to 0.975

The sequence listed as SQSKGYRPKLF [SIPA1L3_Y1376_G1371S_YF] shows phosphorylation enrichment equal to 0.5

The sequence listed as MENFIYESMRF [CYP19A1_Y361_YF] shows phosphorylation enrichment equal to 0.626

The sequence listed as EFISEHCGEII [EZH2_Y641_Y641H] shows phosphorylation enrichment equal to 1.17

The sequence listed as DVCKNYAKAKD [ALB_Y343_E345K] shows phosphorylation enrichment equal to 0.607

The sequence listed as DPADRYLTEQY [CDKL5_Y286_C291Y] shows phosphorylation enrichment equal to 0.965

The sequence listed as LRFDVYGGENE [STOX1_Y610_E608D_YF] shows phosphorylation enrichment equal to 1.22

The sequence listed as SPFAVYRFFTF [RPGRIP1_Y826_YF] shows phosphorylation enrichment equal to 1.08

The sequence listed as DDLEVYLKHPL [SACS_Y3477_L3481P] shows phosphorylation enrichment equal to 1.32

The sequence listed as RNFVHYVQGLK [VWF_Y1400_R1399H] shows phosphorylation enrichment equal to 0.605

The sequence listed as CPPKVYELMRA [ABL2_Y515] shows phosphorylation enrichment equal to 0.53

The sequence listed as AALRLYHVSDS [VIL1_Y256_K254R] shows phosphorylation enrichment equal to 0.734

The sequence listed as PTTKTYFLHFD [HBA1_Y43_P45L] shows phosphorylation enrichment equal to 1.98

The sequence listed as PATYTYDEYKK [COL8A2_Y648] shows phosphorylation enrichment equal to 0.868

The sequence listed as EGDGVYTLNDE [HP_Y125_N129D] shows phosphorylation enrichment equal to 1.21

The sequence listed as SDVNKYSTAFG [GJB3_Y16_G12D] shows phosphorylation enrichment equal to 0.451

The sequence listed as QGRQTYLPQPA [DDR2_Y813] shows phosphorylation enrichment equal to 0.778

The sequence listed as KMKGEYYRYLA [YWHAG_Y130_D129E] shows phosphorylation enrichment equal to 1.68

The sequence listed as GRFSGYKSKHG [EPHA3_Y570_C568S] shows phosphorylation enrichment equal to 0.438

The sequence listed as EIRTQYEVMAS [GFAP_Y242_A244V] shows phosphorylation enrichment equal to 1.07

The sequence listed as NSNSDYVDVLP [SH2D1B_Y127] shows phosphorylation enrichment equal to 1.11

The sequence listed as YRGYSYDDIPD [TMEM230_Y112] shows phosphorylation enrichment equal to 0.973

The sequence listed as RSRSPYSPVLR [CDK13_Y399] shows phosphorylation enrichment equal to 0.563

The sequence listed as SGGMDYGMVGG [TNRC6B_Y1382] shows phosphorylation enrichment equal to 0.517

The sequence listed as AACQHYGVRTC [NR4A2_Y275] shows phosphorylation enrichment equal to 0.513

The sequence listed as HTVEDYQAIVD [CCT7_Y263] shows phosphorylation enrichment equal to 1.67

The sequence listed as ALWFIYSHTRS [ENG_Y614_YF] shows phosphorylation enrichment equal to 0.956

The sequence listed as LFSINYLHFGD [KDM4C_Y201_E206D_YF] shows phosphorylation enrichment equal to 1.56

The sequence listed as IVAREYYSKAD [CAMK2B_Y107_E110K] shows phosphorylation enrichment equal to 0.697

The sequence listed as DWLRRYLENGK [HLA-A_Y195_E190D] shows phosphorylation enrichment equal to 0.986

The sequence listed as GCVSKYSGVFS [TUBGCP6_Y1624] shows phosphorylation enrichment equal to 0.81

The sequence listed as CTTIHYTFMCN [TP53_Y234_N235T_YF] shows phosphorylation enrichment equal to 0.976

The sequence listed as PFRKLYESVKK [MKI67_Y241_W238R] shows phosphorylation enrichment equal to 1.16
